Test system: Phospho-Rb (Ser807/811)
ASSAY COMMENT: Phospho-Retinoblastoma (pRB) Cellular Assay
Assay type: cell-based
RUN CONDITIONS: Homo sapiens, OVCAR-3; NIH OVCAR3 cells, 24 hours; concentration giving 50% response
ASSAY READOUT: IC50 (nM)

Below are worked cases with known answers.
COc1cc(Oc2ccc(F)c(F)c2)ccc1NC(=O)OCc1ccc2c(c1OC)C(=O)N(C1CCC(=O)NC1=O)C2 (stereo not shown) | 361
O=C1CCC(N2Cc3ccc(COC(=O)Nc4ccc(Oc5ccc(F)cc5)cc4)c(O[C@@H]4CCCOC4)c3C2=O)C(=O)N1 (stereo partly shown) | 23
COc1cc(Oc2ccc(F)cc2Cl)ccc1NC(=O)OCc1ccc2c(c1OC)C(=O)N(C1CCC(=O)NC1=O)C2 (stereo not shown) | 50
COc1c(COC(=O)Nc2ccc(Oc3ccc(Cl)c(Cl)c3)cc2F)ccc2c1C(=O)N(C1CCC(=O)NC1=O)C2 (stereo not shown) | 115
O=C1CCC(N2Cc3ccc(COC(=O)Nc4ccc(Oc5cccc(F)c5F)cc4)c(O[C@@H]4CCOC4)c3C2=O)C(=O)N1 (stereo partly shown) | 39
CCOc1c(COC(=O)Nc2ccc(Oc3ccccc3)cc2)ccc2c1C(=O)N(C1CCC(=O)NC1=O)C2 (stereo not shown) | 81
COc1c(COC(=O)Nc2ccc(Oc3cccc(F)c3)cc2C)ccc2c1C(=O)N(C1CCC(=O)NC1=O)C2 (stereo not shown) | 127
COc1c(COC(=O)Nc2ccc(Oc3ccc(F)cc3F)cc2C)ccc2c1C(=O)N(C1CCC(=O)NC1=O)C2 (stereo not shown) | 132

a. COc1c(COC(=O)Nc2ccc(Oc3cc(F)c(F)cc3F)cc2)ccc2c1C(=O)N(C1CCC(=O)NC1=O)C2 (stereo not shown)
b. COCCOc1c(COC(=O)Nc2ccc(Oc3ccc(F)c(F)c3)cc2F)ccc2c1C(=O)N(C1CCC(=O)NC1=O)C2 (stereo not shown)
Prompt: Given the listed items, does a or b have the lesser reported IC50? # respond with the chosen item's label
Completion: b
(b: 36 nM, a: 109 nM)

P. CC(C)(O)COc1c(COC(=O)Nc2ccc(Oc3ccc(F)c(F)c3)cc2)ccc2c1C(=O)N(C1CCC(=O)NC1=O)C2 (stereo not shown)
Q. COc1cc(Oc2ccc(F)cc2C)ccc1NC(=O)OCc1ccc2c(c1OC)C(=O)N(C1CCC(=O)NC1=O)C2 (stereo not shown)
Prompt: Higher IC50 between P and Q ? # respond with the chosen item's label
Completion: Q
